Numbers sourced from patent US20240301023A1.

For each record, write down the corresponding cAMP assay (ALPHAScreen), result at 1 µM peptide.
System Tested: Mu opioid receptor (MOR)
Sequence (P35372 whole entry): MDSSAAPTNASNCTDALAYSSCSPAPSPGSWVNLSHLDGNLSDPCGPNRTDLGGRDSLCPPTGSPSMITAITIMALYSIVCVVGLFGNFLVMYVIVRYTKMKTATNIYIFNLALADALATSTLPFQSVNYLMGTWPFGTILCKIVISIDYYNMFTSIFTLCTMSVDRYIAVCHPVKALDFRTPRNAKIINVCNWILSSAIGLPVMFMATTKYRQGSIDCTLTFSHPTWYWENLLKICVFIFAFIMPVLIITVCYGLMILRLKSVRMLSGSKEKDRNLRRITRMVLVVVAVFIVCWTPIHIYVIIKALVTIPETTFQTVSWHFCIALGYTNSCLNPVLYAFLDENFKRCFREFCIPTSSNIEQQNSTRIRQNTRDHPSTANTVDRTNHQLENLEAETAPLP
Experimental Details: cell-based or functional assay
Square brackets hold non-standard residues; d marks the D form. Ends that are not written are not given here. Phe(4-NO2) = N[C@@H](Cc1ccc([N+](=O)[O-])cc1)C(=O)O; Phe(4-Cl) = N[C@@H](Cc1ccc(Cl)cc1)C(=O)O; Api = NC1(C(=O)O)CCNCC1; Sar = CNCC(=O)O
Give bare numbers.

Field: example entries. Status: answers known.
What value of measured cAMP assay (ALPHAScreen), result at 1 µM peptide is listed for H-Y[Sar][Phe(4-NO2)]L[dK][dR]-NH2 [SEQ ID NO. 10: NH2-Tyr-Sar-(4-NO2)Phe-Leu-DLys-DArg-NH2] ?
-1.27

What value of measured cAMP assay (ALPHAScreen), result at 1 µM peptide is listed for H-Y[Sar]FLR[dR]-NH2 [SEQ ID NO. 3: NH2-Tyr-Sar-Phe-Leu-Arg-DArg-NH2] ?
-0.68

What value of measured cAMP assay (ALPHAScreen), result at 1 µM peptide is listed for [dF][dF][dL][dK][Api]-OH (N-terminus assumed; SMILES CC(C)C[C@@H](NC(=O)[C@@H](Cc1ccccc1)NC(=O)[C@H](N)Cc1ccccc1)C(=O)N[C@H](CCCCN)C(=O)NC1(C(=O)O)CCNCC1) [CR845 (SEQ ID NO. 35: DPhe-DPhe-DLeu-DLys-Cap-CO2H)] ?
0.37

Then there is this binder:
What value of measured cAMP assay (ALPHAScreen), result at 1 µM peptide is listed for H-Y[Sar][Phe(4-Cl)]LR[dR]-NH2 [SEQ ID NO. 11: NH2-Tyr-Sar-(4-Cl)Phe-Leu-Arg-DArg-NH2] ?
-0.86
